The reported measurements were obtained from paper PMC11124940.

# METHOD NOTES: Apparent solubility study (24 h, 25 °C, HPLC)
# Type: physicochemical
# PROTOCOL CONDITIONS: HCl solution, simulated gastric fluid, thermodynamic from solid, pH 1.2 HCl, read-out: Hesperetin Concentration (apparent solubility)
OBSERVATION TYPE: solubility at 24 h (µg/mL)
Number only, in µg/mL; omit the unit.

Problem: What solubility at 24 h value was documented for this compound, `COc1ccc([C@@H]2CC(=O)c3c(O)cc(O)cc3O2)cc1O` ?
Result: 4

====

# METHOD NOTES: Apparent solubility study (24 h, 25 °C, HPLC)
# Type: physicochemical
# PROTOCOL CONDITIONS: aqueous buffer, thermodynamic from solid, pH 6.8 phosphate buffer, read-out: Curcumin Concentration (apparent solubility)
OBSERVATION TYPE: solubility at 24 h (µg/mL)
Give the quantity in µg/mL, number only.

Problem: What value of solubility at 24 h has been recorded for this entry: `COc1cc(/C=C/C(=O)CC(=O)/C=C/c2ccc(O)c(OC)c2)ccc1O`
Result: 0.14

====

# METHOD NOTES: Apparent solubility study (24 h, 25 °C, HPLC)
# Type: physicochemical
# PROTOCOL CONDITIONS: HCl solution, pH 1.2 HCl, read-out: Curcumin Concentration (apparent solubility)
OBSERVATION TYPE: solubility at 24 h (µg/mL)
Write it as a number; the unit µg/mL goes unstated.

Problem: Which solubility at 24 h value is on record for `COc1cc(/C=C/C(=O)CC(=O)/C=C/c2ccc(O)c(OC)c2)ccc1O` ?
Result: 0.1
